# Assay name: yeast display, Sf9 membrane polyspecificity reagent, FACS + sequencing; frameworks hold sequencing errors
Metric: polyreactivity (PSR sort gate)

>  <Seq>
KVQLVESGGGLVQAGGSLRLSCAASGLILRRYAMGWSRQAPGKEREFVARITWSGSRTYYADSVKGRFTISRDYGKNTVYLQMKSLKPEDSAFYYCAAVGRLARRDYWGQGTQVSVSS

>  <Recorded value>
high polyreactivity

$$$$
>  <Seq>
QVQLVESGGGLVQAGGSLRLSCAASGSTFSPYAMGWYRQAPGKERELVAAITSSGGSTYYADSVKGRFTISRDNAKNTVYLQMNSLKPEDTAVYYCAAEGYYTSTYDLYDYYWGQGTQVTVSS

>  <Recorded value>
low polyreactivity

$$$$
>  <Seq>
QVQLVESGGGLVQAGGSLRLSCAASGFTIYANAMGWYRQAPGKERELVAAISSNGGSTYYADSVKGRFTISRDNAKNTVYLQMKSLKPEDTAVYSCADYFGSVLRSTIYDYWGQGTQVTVSS

>  <Recorded value>
low polyreactivity

$$$$
>  <Seq>
QVQLVESGGGLVQAGGSLRLSCAASGSIFYTNAMGWYRQAPGKEMEFVASITYRGSNTYYADSVKGRFTISRDNAKTTVYLQMNSLKPEDTAVYYCGADSFYYRPEYDYWGLGTQVTVSS

>  <Recorded value>
low polyreactivity

$$$$
>  <Seq>
QVQLVESGGGLVQAGGSLRLSCAASGRIFGYYTMGWYRQAPGKERELVADSSGGNTSYADSVKGRFTISRDNAKNTVYLQMNSLKPEDTAVYYCAKDLPGAWRGDDYWGQGTQVTVSS

>  <Recorded value>
low polyreactivity

$$$$
>  <Seq>
QVQLVESGGGLVQAGGSLRLSCAASGSIFESNAMGWYRQAPGKEREFVAAIDQNDGSTNYADSVKGRFTISRDNAKNTVYLQMNSLKPEDTAVYYCAKYWGYLGYYEFDYWGQGTQVTVSS

>  <Recorded value>
low polyreactivity

$$$$
>  <Seq>
QVQLVESGGGLVQAGGSLRLSCAASGSTFIGNAMGWYRQAPGKERELVAAITRSGGSTFYADSVKGRFTISRDNAKNTVYLQMNSLKPEDTAVYYCAARNGAYPALTAGDYWGQGTQVTVSS

>  <Recorded value>
high polyreactivity

$$$$
>  <Seq>
QVQLVESGGGLVQAGGSLRISCAASGSIFYVYAMGWYRQAPGKERELVATISTGGSTYYADSVKGRFTISRDNAKNTVYLQMNSLKPEDTAVYYCNAQFTPRYWGGYDSWGQGTQVTVSS

>  <Recorded value>
low polyreactivity

$$$$
>  <Seq>
QVQLVESGGGLVQAGGSLRLSCAASGSTLRGYAMGWYRQAPGKERELVAAITYISDSTYYADSVKGRFTISRDNAKNTVYLQMNSLKPEDTAVYYCNAYYDGDWRYTSQETGDHWGQGTQVTVSS

>  <Recorded value>
low polyreactivity

$$$$
>  <Seq>
QVQLVESGGGLVQAGGSLRLSCAASGIIFTYYAMGWYRQAPGKERELVAAISVSGSSTYYADSVKARFTISRDYAKNTVYLQMNRLKPEDTAVYYCAVKQGFYSRALKLYYWGQGTQVTVSS

>  <Recorded value>
high polyreactivity

$$$$
>  <Seq>
QVQLVESGGGLVQAGGSLRLSCAASGSIFPEYAMGWYIQAPGKERELVASISSGGSSTYYADSVKGRFTISRDNAKNTVYLQMNSLKPEDTAVYYCARRRSYKRRFDYWGQGTQVTVSS

>  <Recorded value>
low polyreactivity

$$$$
